# METHOD_SUMMARY: MELAS cybrid and Rieske KO viability enhancers – cell-based, MELAS cybrids, Rieske KO mouse fibroblasts, CellTiter-Glo, primary screen (AID 1508586); further: test concentration not given here
# TEST_PARAMETERS: Rieske KO mouse fibroblast survival, low glucose, CellTiter-Glo 72 h
Answer False if z-score is under -0.2, and True if it is -0.2 or more.

Exam item: In plain terms: is recorded z-score at least -0.2 for COc1ccc2cc3[n+](cc2c1OC)CCc1cc2c(cc1-3)OCO2 ?
Marked response: True

Exam item: In plain terms: is recorded z-score at least -0.2 for CCN1CCCC(OC(=O)C(c2ccccc2)c2ccccc2)C1 (stereo unspecified) ?
Marked response: True

Exam item: In plain terms: is recorded z-score at least -0.2 for C/C=C(/C(=C/C)c1ccc(O)cc1)c1ccc(O)cc1 ?
Marked response: False
